# protocol-summary: Quality of sweetness: sensory attributes scored on a 15-point unstructured line scale
# Format: in vivo
# condition-info: mean score, 15-point line scale, two replications, room temperature; same superscript letter = not significantly different (95%)
Marks after values point to notes of the source that are not given here.
assay-metric: Overall Flavor

compound="CC1=CC23CCC4C(C)(C(=O)O)CCCC4(C)C2CCC1(OC1OC(CO)C(O)C(OC2OC(CO)C(O)C(O)C2O)C1OC1OC(CO)C(O)C(O)C1O)C3 (stereo not drawn)" assay_metric="Overall Flavor" assay_value=6.44^b
compound="CC1=CC23CCC4C(C)(C(=O)OC5OC(CO)C(O)C(O)C5O)CCCC4(C)C2CCC1(OC1OC(CO)C(O)C(OC2OC(CO)C(O)C(O)C2O)C1OC1OC(CO)C(O)C(O)C1O)C3 (stereo not drawn)" assay_metric="Overall Flavor" assay_value=3.58^c
compound="C=C1C[C@@]23CC[C@H]4[C@@](C)(CCC[C@@]4(C)C(=O)OC4OC(CO)C(O)C(O)C4O)[C@@H]2CC[C@]1(OC1OC(CO)C(O)C(OC2OC(CO)C(O)C(O)C2O)C1OC1OC(CO)C(O)C(O)C1O)C3 (stereo partly drawn) [Reb. A, Rebaudioside A]" assay_metric="Overall Flavor" assay_value=9.88^a

---

Collected Overall Aroma values appear next to each entry.
# protocol-summary: Quality of sweetness: sensory attributes scored on a 15-point unstructured line scale
# Type: in vivo
# Parameters: key: scores on a 15-point unstructured line scale
# condition-info: mean score, 15-point line scale, two replications, room temperature; more than 50% of responses zero
assay-metric: Overall Aroma

compound="CC1(C(=O)O)CCCC2(C)C3CCC4(OC5OC(CO)C(O)C(OC6OC(CO)C(O)C(O)C6O)C5OC5OC(CO)C(O)C(O)C5O)CC3(CCC12)CC4(C)O (stereo not drawn) [Derivative Product 3 (III)]" assay_metric="Overall Aroma" assay_value=0.09
compound="CC1=CC23CCC4C(C)(C(=O)O)CCCC4(C)C2CCC1(OC1OC(CO)C(O)C(OC2OC(CO)C(O)C(O)C2O)C1OC1OC(CO)C(O)C(O)C1O)C3 (stereo not drawn) [Derivative Product 4 (V)]" assay_metric="Overall Aroma" assay_value=0.19
compound="CC1(C(=O)OC2OC(CO)C(O)C(O)C2O)CCCC2(C)C3CCC4(OC5OC(CO)C(O)C(OC6OC(CO)C(O)C(O)C6O)C5OC5OC(CO)C(O)C(O)C5O)CC3(CCC12)CC4(C)O (stereo not drawn) [Derivative Product 1 (II)]" assay_metric="Overall Aroma" assay_value=0.17
compound="C=C1C[C@@]23CC[C@H]4[C@@](C)(CCC[C@@]4(C)C(=O)OC4OC(CO)C(O)C(O)C4O)[C@@H]2CC[C@]1(OC1OC(CO)C(O)C(OC2OC(CO)C(O)C(O)C2O)C1OC1OC(CO)C(O)C(O)C1O)C3 (stereo partly drawn) [Reb. A, Rebaudioside A]" assay_metric="Overall Aroma" assay_value=0.16
compound="OC[C@H]1O[C@@](CO)(O[C@H]2O[C@H](CO)[C@@H](O)[C@H](O)[C@H]2O)[C@@H](O)[C@@H]1O [Sucrose, sucrose, reference compound]" assay_metric="Overall Aroma" assay_value=0.40
compound="CC1=CC23CCC4C(C)(C(=O)OC5OC(CO)C(O)C(O)C5O)CCCC4(C)C2CCC1(OC1OC(CO)C(O)C(OC2OC(CO)C(O)C(O)C2O)C1OC1OC(CO)C(O)C(O)C1O)C3 (stereo not drawn) [Derivative Product 2 (IV)]" assay_metric="Overall Aroma" assay_value=0.09

The measured values listed here are drawn from patent US9115166B2.
